We begin with a simple list: items and their reported relative viability.
Test system: UMC-11
Assay: relative viability (nuclei count vs DMSO), 5 days (fraction); higher = more cells survive
Conditions: first compound 0.006325 µM

compound	relative viability
CCNC(=O)c1noc(-c2cc(C(C)C)c(O)cc2O)c1-c1ccc(CN2CCOCC2)cc1 [Luminespib] + O=C(c1cc(Cc2n[nH]c(=O)c3ccccc23)ccc1F)N1CCN(C(=O)C2CC2)CC1 [Olaparib] (partner 8 µM)	0.403
CCNC(=O)c1noc(-c2cc(C(C)C)c(O)cc2O)c1-c1ccc(CN2CCOCC2)cc1 [Luminespib] + CC1(C)CCC(c2ccc(Cl)cc2)=C(CN2CCN(c3ccc(C(=O)NS(=O)(=O)c4ccc(N[C@H](CCN5CCOCC5)CSc5ccccc5)c(S(=O)(=O)C(F)(F)F)c4)cc3)CC2)C1 [Navitoclax] (partner 0.5 µM)	0.349
CCNC(=O)c1noc(-c2cc(C(C)C)c(O)cc2O)c1-c1ccc(CN2CCOCC2)cc1 [Luminespib] + Cc1nc(NC(=O)N2CCC[C@H]2C(N)=O)sc1-c1ccnc(C(C)(C)C(F)(F)F)c1 [Alpelisib] (partner 2 µM)	0.907
CCNC(=O)c1noc(-c2cc(C(C)C)c(O)cc2O)c1-c1ccc(CN2CCOCC2)cc1 [Luminespib] + C[C@@H](Oc1cc(-c2cnn(C3CCNCC3)c2)cnc1N)c1c(Cl)ccc(F)c1Cl [Crizotinib] (partner 1 µM)	0.584
CCNC(=O)c1noc(-c2cc(C(C)C)c(O)cc2O)c1-c1ccc(CN2CCOCC2)cc1 [Luminespib] + CC(C)C[C@H](NC(=O)[C@H](Cc1ccccc1)NC(=O)c1cnccn1)B(O)O [Bortezomib] (partner 0.002 µM)	0.616
CCNC(=O)c1noc(-c2cc(C(C)C)c(O)cc2O)c1-c1ccc(CN2CCOCC2)cc1 [Luminespib] + COc1cc2c(Oc3ccc(NC(=O)C4(C(=O)Nc5ccc(F)cc5)CC4)cc3F)ccnc2cc1OCCCN1CCOCC1 [Foretinib] (partner 0.25 µM)	0.982
CCNC(=O)c1noc(-c2cc(C(C)C)c(O)cc2O)c1-c1ccc(CN2CCOCC2)cc1 [Luminespib] + N=C(N)NC(=N)NCCc1ccccc1 [Phenformin] (partner 250 µM)	0.338
CCNC(=O)c1noc(-c2cc(C(C)C)c(O)cc2O)c1-c1ccc(CN2CCOCC2)cc1 [Luminespib] + COc1cccc2cc(-c3nc([C@H]4CC[C@H](C(=O)O)CC4)n4ncnc(N)c34)[nH]c12 [OSI-027] (partner 0.5 µM)	0.42
CCNC(=O)c1noc(-c2cc(C(C)C)c(O)cc2O)c1-c1ccc(CN2CCOCC2)cc1 [Luminespib] + O=C(CCCCCCC(=O)Nc1ccccc1)NO [Vorinostat] (partner 1 µM)	0.402
CCNC(=O)c1noc(-c2cc(C(C)C)c(O)cc2O)c1-c1ccc(CN2CCOCC2)cc1 [Luminespib] + Cc1nc(Nc2ncc(C(=O)Nc3c(C)cccc3Cl)s2)cc(N2CCN(CCO)CC2)n1 [Dasatinib] (partner 0.075 µM)	0.488
CCNC(=O)c1noc(-c2cc(C(C)C)c(O)cc2O)c1-c1ccc(CN2CCOCC2)cc1 [Luminespib] + C[C@]1(O)C[C@@H](c2nc(-c3ccc4ccc(-c5ccccc5)nc4c3)c3c(N)nccn32)C1 [Linsitinib] (partner 1 µM)	0.993

====

Tested on: HCC-44
Experiment: relative viability (nuclei count vs DMSO), 5 days (fraction); higher = more cells survive
Conditions: first compound 0.2 µM

compound	relative viability
CCNC(=O)c1noc(-c2cc(C(C)C)c(O)cc2O)c1-c1ccc(CN2CCOCC2)cc1 [Luminespib] + CC(=O)Nc1cccc(-n2c(=O)n(C3CC3)c(=O)c3c(Nc4ccc(I)cc4F)n(C)c(=O)c(C)c32)c1 [Trametinib] (partner 0.02 µM)	0.775
CN1CCN(CCOc2cc(OC3CCOCC3)c3c(Nc4c(Cl)ccc5c4OCO5)ncnc3c2)CC1 [Saracatinib] + CS(=O)(=O)N1CCN(Cc2cc3nc(-c4cccc5[nH]ncc45)nc(N4CCOCC4)c3s2)CC1 [Pictilisib] (partner 1 µM)	0.598
CN1CCN(CCOc2cc(OC3CCOCC3)c3c(Nc4c(Cl)ccc5c4OCO5)ncnc3c2)CC1 [Saracatinib] + C[C@@H](Oc1cc(-c2cnn(C3CCNCC3)c2)cnc1N)c1c(Cl)ccc(F)c1Cl [Crizotinib] (partner 1 µM)	0.738
CCNC(=O)c1noc(-c2cc(C(C)C)c(O)cc2O)c1-c1ccc(CN2CCOCC2)cc1 [Luminespib] + CS(=O)(=O)N1CCN(Cc2cc3nc(-c4cccc5[nH]ncc45)nc(N4CCOCC4)c3s2)CC1 [Pictilisib] (partner 1 µM)	0.12
CCNC(=O)c1noc(-c2cc(C(C)C)c(O)cc2O)c1-c1ccc(CN2CCOCC2)cc1 [Luminespib] + O=C(c1cc(Cc2n[nH]c(=O)c3ccccc23)ccc1F)N1CCN(C(=O)C2CC2)CC1 [Olaparib] (partner 8 µM)	0.52
CN1CCN(CCOc2cc(OC3CCOCC3)c3c(Nc4c(Cl)ccc5c4OCO5)ncnc3c2)CC1 [Saracatinib] + CC(=O)c1c(C)c2cnc(Nc3ccc(N4CCNCC4)cn3)nc2n(C2CCCC2)c1=O [Palbociclib] (partner 0.5 µM)	0.974
Cc1csc(=NC2CCCCC2)n1/N=C/c1ccc(O)c(O)c1O [MIM1] + N=C(N)NC(=N)NCCc1ccccc1 [Phenformin] (partner 250 µM)	0.239
CCNC(=O)c1noc(-c2cc(C(C)C)c(O)cc2O)c1-c1ccc(CN2CCOCC2)cc1 [Luminespib] + CC(=O)c1c(C)c2cnc(Nc3ccc(N4CCNCC4)cn3)nc2n(C2CCCC2)c1=O [Palbociclib] (partner 0.5 µM)	0.858
CCNC(=O)c1noc(-c2cc(C(C)C)c(O)cc2O)c1-c1ccc(CN2CCOCC2)cc1 [Luminespib] + CC(C)C[C@H](NC(=O)[C@H](Cc1ccccc1)NC(=O)c1cnccn1)B(O)O [Bortezomib] (partner 0.002 µM)	0.145
CN1CCN(CCOc2cc(OC3CCOCC3)c3c(Nc4c(Cl)ccc5c4OCO5)ncnc3c2)CC1 [Saracatinib] + NC(=O)Nc1cc(-c2cccc(F)c2)sc1C(=O)N[C@H]1CCCNC1 [AZD7762] (partner 0.2 µM)	0.941
CCNC(=O)c1noc(-c2cc(C(C)C)c(O)cc2O)c1-c1ccc(CN2CCOCC2)cc1 [Luminespib] + Cc1cc(Nc2cc(N3CCN(C)CC3)nc(Sc3ccc(NC(=O)C4CC4)cc3)n2)n[nH]1 [Tozasertib] (partner 0.1 µM)	0.159
